B1: VH:VL chains; a variant is named by its letters at X, in order (parent)
chain 1: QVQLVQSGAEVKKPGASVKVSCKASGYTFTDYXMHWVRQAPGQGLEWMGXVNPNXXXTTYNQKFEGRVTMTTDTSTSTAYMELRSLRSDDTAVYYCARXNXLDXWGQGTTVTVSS
chain 2: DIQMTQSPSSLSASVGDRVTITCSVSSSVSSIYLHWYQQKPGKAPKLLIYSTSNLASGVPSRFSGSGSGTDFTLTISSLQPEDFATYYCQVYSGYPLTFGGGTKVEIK

- Variants of: B1
- TEST SUMMARY: yeast display scFab, FACS + sequencing
- CONDITION INFO: with MET
The other results are listed elsewhere or left out. The hit rate among all sequences tested is not known here.

[
  {
    "MUTATION LIST": "AREGDAGD",
    "antigen binding call": "no binding"
  },
  {
    "MUTATION LIST": "YRRGGSVS",
    "antigen binding call": "binds"
  },
  {
    "MUTATION LIST": "YRGKSSAD",
    "antigen binding call": "binds"
  },
  {
    "MUTATION LIST": "VRRGSSVS",
    "antigen binding call": "binds"
  },
  {
    "MUTATION LIST": "VAEGDAAD",
    "antigen binding call": "no binding"
  },
  {
    "MUTATION LIST": "YRAGDDVY",
    "antigen binding call": "no binding"
  },
  {
    "MUTATION LIST": "FRRGGASA",
    "antigen binding call": "binds"
  },
  {
    "MUTATION LIST": "FRARGAAY",
    "antigen binding call": "binds"
  },
  {
    "MUTATION LIST": "FRGGSSGV",
    "antigen binding call": "binds"
  },
  {
    "MUTATION LIST": "YRTRGSGF",
    "antigen binding call": "binds"
  },
  {
    "MUTATION LIST": "YARAGSVS",
    "antigen binding call": "no binding"
  },
  {
    "MUTATION LIST": "YRRRGAGF",
    "antigen binding call": "binds"
  },
  {
    "MUTATION LIST": "YRAGGDAD",
    "antigen binding call": "binds"
  },
  {
    "MUTATION LIST": "YAGKTSAD",
    "antigen binding call": "no binding"
  },
  {
    "MUTATION LIST": "VEEEGSVS",
    "antigen binding call": "no binding"
  },
  {
    "MUTATION LIST": "DTKAASWA",
    "antigen binding call": "no binding"
  },
  {
    "MUTATION LIST": "DRRGDSSA",
    "antigen binding call": "no binding"
  },
  {
    "MUTATION LIST": "VGGTSDVF",
    "antigen binding call": "no binding"
  },
  {
    "MUTATION LIST": "YRRRGSGF",
    "antigen binding call": "binds"
  },
  {
    "MUTATION LIST": "VRRRGAAD",
    "antigen binding call": "binds"
  },
  {
    "MUTATION LIST": "YRRKGSSA",
    "antigen binding call": "binds"
  },
  {
    "MUTATION LIST": "YKGRSAVY",
    "antigen binding call": "no binding"
  },
  {
    "MUTATION LIST": "DATGGDVD",
    "antigen binding call": "no binding"
  },
  {
    "MUTATION LIST": "YATAADAD",
    "antigen binding call": "no binding"
  },
  {
    "MUTATION LIST": "VGRATVGS",
    "antigen binding call": "no binding"
  },
  {
    "MUTATION LIST": "FARGGYVA",
    "antigen binding call": "no binding"
  },
  {
    "MUTATION LIST": "FKGKGSAD",
    "antigen binding call": "binds"
  },
  {
    "MUTATION LIST": "YTGGNDAD",
    "antigen binding call": "no binding"
  },
  {
    "MUTATION LIST": "VETGNAVY",
    "antigen binding call": "no binding"
  },
  {
    "MUTATION LIST": "YRKGTAGD",
    "antigen binding call": "binds"
  },
  {
    "MUTATION LIST": "STGRADWA",
    "antigen binding call": "no binding"
  },
  {
    "MUTATION LIST": "DREGDDAV",
    "antigen binding call": "no binding"
  },
  {
    "MUTATION LIST": "YEKGGAGD",
    "antigen binding call": "binds"
  },
  {
    "MUTATION LIST": "ARGEGSGV",
    "antigen binding call": "no binding"
  },
  {
    "MUTATION LIST": "DGARNFGV",
    "antigen binding call": "no binding"
  },
  {
    "MUTATION LIST": "VKAASAVY",
    "antigen binding call": "no binding"
  }
]
